# SYK kinase (Homo sapiens, UniProt P43405): Ki values follow

Observe how each entry below is paired with its result.
{"columns": ["SMILES_TEXT", "TARGET_ENTITY", "MEASURED_ENDPOINT", "VALUE_REPORTED"],
 "data": [
  ["COc1ccc2nc(Nc3ccc4c(c3)NC(=O)CS4)c3[nH]ncc3c2c1", "SYK kinase (Homo sapiens, UniProt P43405)", "Ki", "10 to 100 nM"],
  ["COc1ccc2nc(Nc3ccc(CC(=O)O)cc3)c3n[nH]cc3c2c1", "SYK kinase (Homo sapiens, UniProt P43405)", "Ki", "100 to 1000 nM"]
]}

Give one value of Ki per listed compound.
1. CC(=O)N1CCN(c2ccc(Nc3nc4ccc(F)cc4c4cn[nH]c34)cc2)CC1
2. COc1ccc2nc(Nc3cccc(OCCN4CCNCC4)c3)c3n[nH]cc3c2c1
3. COc1ccc2nc(Nc3ccc(NC(=O)C(F)(F)F)cc3)c3n[nH]cc3c2c1
4. CCN1CCN(c2ccc(Nc3nc4ccc(OC)cc4c4c[nH]nc34)cc2)CC1
5. COc1ccc2nc(Nc3ccc4c(c3)NCCC4)c3n[nH]cc3c2c1
6. COc1ccc(Nc2nc3ccc(OC)cc3c3c[nH]nc23)cc1
7. COc1cccc2c1nc(Nc1ccc(N3CCOCC3)c(F)c1)c1n[nH]cc12

1. 100 to 1000 nM
2. 100 to 1000 nM
3. 100 to 1000 nM
4. < 10 nM
5. 10 to 100 nM
6. 10 to 100 nM
7. < 10 nM

For every item below, please supply its Ki.
1. CCOc1cc2nc(Nc3ccc4cn[nH]c4c3)c3n[nH]cc3c2cc1OCC
2. COc1ccc2nc(Nc3cc(C)ccn3)c3n[nH]cc3c2c1
3. COc1ccc2nc(Nc3ccc(Cc4ccccc4)cc3)c3n[nH]cc3c2c1
4. COc1ccc2nc(Nc3ccc(Oc4ccccc4)cc3)c3n[nH]cc3c2c1
5. COc1ccc2nc(Nc3ccc4ncn(C)c4c3)c3n[nH]cc3c2c1
6. COc1ccc(Nc2nc3cccnc3c3c[nH]nc23)cc1OC
7. Cc1nsc2nc(Nc3ccc(N4CCN(C)CC4)cc3)c3n[nH]cc3c12

1. 10 to 100 nM
2. 100 to 1000 nM
3. 100 to 1000 nM
4. 10 to 100 nM
5. 100 to 1000 nM
6. 10 to 100 nM
7. 100 to 1000 nM

###

Task for the reader: assign each of the following molecules its reported Ki.
- TARGET_ENTITY: SYK kinase (Homo sapiens, UniProt P43405)

Please review the entries below; each comes with its answer.
{"columns": ["SMILES_TEXT", "Ki"],
 "data": [
  ["COc1cc2nc(Nc3ccc(N4CCOCC4)cc3)c3n[nH]cc3c2cc1OC", "10 to 100 nM"],
  ["COc1ccc2nc(Nc3ccc(N4CCN(CC(C)C)CC4)cc3)c3n[nH]cc3c2c1", "< 10 nM"],
  ["CN1CCN(c2ccc(Nc3nc4ccccc4c4c[nH]nc34)cc2)CC1", "100 to 1000 nM"]
]}

# next molecule below
Find the measured Ki of CCN1CCN(c2ccc(Nc3nc4cc(OC)ccc4c4c[nH]nc34)cc2)CC1 and report it. 10 to 100 nM

Cited source: patent US9499535B2
